Test system: MOLT-4 leukemia
Test: NCI tumour cell line growth inhibition, 48 h
Where TGI equals or exceeds 10 µM, the correct label is True; where it does not, the label is False.

These recorded examples may help you get a feel for the data.
• O=C(O)CCCSc1nc2ccccc2s1 = True
• COc1cc2c(cc1Oc1ccc(OC)c3c1CC1c4c(cc(OC)c(OC)c4-3)CCN1C)CC1c3c(cc(OC)c(OC)c3-2)CCN1C (configuration not stated) = False
• COc1c(C)c(C/C=C(\C)CCCCO)c(OC)c(OC)c1OC = True
• CN(C)CC/C(=N\Nc1ccc(Cl)c(Cl)c1)c1ccccc1 = False

Qu. Quick check, TGI >= 10 µM? Cc1cc2c3ccccc3ccc2[n+]2ccccc12
Ans. True

Qu. Quick check, TGI >= 10 µM? CC[N+]1(C)CCC(O)(c2ccccc2)C(C(=O)c2ccccc2)C1 (configuration not stated)
Ans. True

Qu. Quick check, TGI >= 10 µM? CCCCCCCCCCCC[n+]1ccccc1
Ans. False

* * *

Tested on: HCC-2998 colon
Experiment: NCI tumour cell line growth inhibition, 48 h
TGI values by entry

These solved cases illustrate the format of a correct answer.
- COc1ccc(-c2cc(-c3cn[nH]c3-c3ccccn3)ccn2)cc1: > 25 µM
- COC(=O)[C@@H]1C2OC(C)(C)OC2CN1C(=O)OCc1ccccc1 (some centres undefined): > 100 µM
- CCN1C(=O)c2ccccc2C1(O)c1ccc(Cl)cc1 (centres undefined): > 100 µM

Now, please, on to the next molecule.
Qu. Given the molecule CC(CO)(CO)Nc1ncnc2ccccc12 , what is its reported TGI?
Ans. > 100 µM

* * *

Tested on: A549 NSCLC
Test: NCI tumour cell line growth inhibition, 48 h
REPORTED ENDPOINT: TGI

These solved cases illustrate the format of a correct answer.
- COc1ccc2oc(=O)c(CC=C(C)C)c(O)c2c1C: > 100 µM
- N#Cc1c(N)c2c(c(-c3ccccc3)c1-c1ccccc1)C(=O)N(NC(=O)c1ccccc1)C2=O: > 100 µM
- CC1=CC2=C(C(N)=O)C(=O)OC2(C)C(c2ccccc2)C1 (centres undefined): > 100 µM
- O=C(Nc1nc2ccccc2n1Cc1ccc(Cl)cc1)NC12CC3CC(CC(C3)C1)C2: 66.5 µM
- Cc1c2cccc-2ccc2c1[nH]c1ccc(Br)cc12: 17.5 µM

Qu. Given the compound O=C1c2ccccc2-c2n[nH]c3cccc1c23 , what is its reported TGI?
Ans. > 100 µM

Qu. Given the compound Cc1ccccc1NC(=O)C1C(=O)N(c2ccccc2C)C(=O)/C1=N\N (centres undefined) , what is its reported TGI?
Ans. > 100 µM

Qu. Given the compound Nc1nnc(N)n1NC(=O)C(=O)Nc1ccc([N+](=O)[O-])cc1 , what is its reported TGI?
Ans. > 100 µM

Qu. Given the compound CC[N+]1(C)CCC(O)(c2ccccc2)C(C(=O)c2ccccc2)C1 (centres undefined) , what is its reported TGI?
Ans. 27.9 µM

Qu. Given the compound COc1ccc([C@H]2C=C(c3cc(F)c(Cl)cc3Cl)NC(=S)N2)cc1 , what is its reported TGI?
Ans. > 100 µM

Qu. Given the compound Cc1cc(N(CCCCl)CCCCl)ccc1C=Nc1cccc(Cl)c1 , what is its reported TGI?
Ans. 24.7 µM

Qu. Given the compound Nc1nc(Cl)cc(NCC2(CO)CCC(O)C2)n1 (centres undefined) , what is its reported TGI?
Ans. > 100 µM

Qu. Given the compound COc1ccc(C2CC(c3ccc4ccccc4c3O)=NN2C(C)=O)cc1OC (centres undefined) , what is its reported TGI?
Ans. > 100 µM

Qu. Given the compound COC(=O)n1c(=O)n(-c2ccccc2)c(=O)n1C(=O)Nc1ccccc1 , what is its reported TGI?
Ans. > 100 µM
